From: BindingDB's records for doi:10.1016/j.bmcl.2009.09.123

The entries below come with measured pIC50 values attached.
Experiment: Inhibition of Tel-fused LCK expressed in mouse BAF3 cells
Note on pIC50: it is the negative log10 of concentration, concentration in mol/L.

Some molecules with recorded pIC50:
entry_smiles: Cc1ccc(NC(=O)c2cccc(C(F)(F)F)c2)cc1Nc1nc2ccccc2n1-c1cc(NCCN2CCN(C)CC2)ncn1
attribute_measured: pIC50
quantitative_result: 7.25
//
entry_smiles: Cc1ccc(NC(=O)c2cc(C(C)(C)C)nn2C)cc1Nc1nc2ccccc2n1-c1cc(N)ncn1
attribute_measured: pIC50
quantitative_result: 6.65
//
entry_smiles: Cc1ccc(NC(=O)c2cccc(C(F)(F)F)c2)cc1Nc1nc2ccccc2n1-c1cc(NC2CCN(C)CC2)ncn1
attribute_measured: pIC50
quantitative_result: 6.06
//
entry_smiles: CCN(CC)CCCCNc1cc(-n2c(Nc3cc(C(=O)Nc4cccc(C)c4)ccc3C)nc3ccccc32)ncn1
attribute_measured: pIC50
quantitative_result: 6.39
//
entry_smiles: Cc1ccc(C(=O)Nc2cccc(C(C)(C)C)c2)cc1Nc1nc2ccccc2n1-c1cc(N)ncn1
attribute_measured: pIC50
quantitative_result: 7.80

Reported pIC50, molecule `Cc1cccc(NC(=O)c2ccc(C)c(Nc3nc4ccccc4n3-c3cc(NCCCN4CCN(C)CC4)ncn3)c2)c1` : ____
6.47

If you can, please state the reported pIC50 value of `COc1cccc(NC(=O)c2ccc(C)c(Nc3nc4ccccc4n3-c3cc(N)ncn3)c2)c1` .
6.80
